experiment: Primary qHTS for inhibitors of nuclear receptor binding SET domain protein 2 (NSD2) in an RCH-ACV wild type WT cells (2C) (AID 1645877); conditions: RCH-ACV (leukaemia line) NSD2 WT (2C) viability, CellTiter-Glo, 72 h; series mostly up to 44.9 µM; note: nearly all actives have a fitted effect of over 70% in size; note: potency is the fitted concentration of half-maximal effect
Inconclusive results are not listed. Activity calls are given as the source filed them. Calls come from the whole dose curve; as a rule, active = well fitted inhibition curve with a large enough effect; inconclusive = small, poorly fitted or top-dose-only effect; inactive = no such curve, though single readings can be large or run the other way.
measurementName: Potency

compound=C=CC[C@]1(O)CC[C@H]2[C@@H]3CCC4=CC(=O)CCC4=C3C=C[C@@]21C endpointvalue="23.7 µM (active)"
compound=COC(=O)C1=CCCN(C)C1 endpointvalue=inactive
compound="COc1ccc(OC)c(CC(C)N)c1 (centres undefined)" endpointvalue=inactive
compound=CCOC(=O)NC(C)(C)Cc1ccc(Cl)cc1 endpointvalue=inactive
